- target.desc: ROCK2 (human)
- assay.overview: KINOMEscan competition binding
- test.conditions: compound 10.0 µM
Assign labels as follows, please: Met for kinase still bound, per cent of control below 90%; Not met for kinase still bound, per cent of control equal to or exceeding 90%.

Inquiry: Consider Nc1ccc(-c2ccc3ncc4ccc(=O)n(-c5cccc(C(F)(F)F)c5)c4c3c2)cn1 . Does its kinase still bound, per cent of control lie strictly below 90%?
Reply text: Met

Inquiry: Consider next the molecule C=CC(=O)Nc1cc(NC(=O)c2ccc(C)c(NC(=O)c3ccno3)c2)cc(C(F)(F)F)c1 in the same way.
Reply text: Met

Inquiry: Let us now turn to Cc1ccc(NC(=O)c2cccc(C(C)(C)C#N)c2)cc1Nc1ccc2ncn(C)c(=O)c2c1
Reply text: Met

Inquiry: Same read-out for COc1cc(C(=O)NC2CCN(C)CC2)ccc1Nc1ncc2c(n1)N(C1CCCC1)C(C)CC(=O)N2C (centres undefined) ?
Reply text: Not met

Inquiry: How about this molecule: C=CC(=O)Nc1cccc(Oc2nc(Nc3ccc(N4CCN(C)CC4)cc3OC)ncc2Cl)c1
Reply text: Met

Inquiry: Record: CCC(=O)N1CCN(c2ccc(-n3c(=O)ccc4cnc5ccc(-c6cnc7ccccc7c6)cc5c43)cc2C(F)(F)F)CC1
Reply text: Met

Inquiry: Try this molecule too: O=C(NOC[C@H](O)CO)c1ccc(F)c(F)c1Nc1ccc(I)cc1F
Reply text: Not met

Inquiry: Next: CCCS(=O)(=O)Nc1ccc(F)c(C(=O)c2c[nH]c3ncc(-c4ccc(Cl)cc4)cc23)c1F
Reply text: Met
